tgt: Torsin-1A-interacting protein 2 (Homo sapiens)
assay explanation: small molecules binding lysate-expressed LULL1 – cell lysate, human LULL1 lysate, 635/667 nm fluorescence, primary screen (AID 1092);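 further: probe is lysate of COS7 cells overexpressing human LULL1; score merges per-feature 667 nm fluorescence with signal-to-noise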
experimental parameters: small-molecule microarray, hLULL1 lysate binding, 635 nm fluorescence; higher = more signal
Measured composite z-score values are reported for all entries that follow.
Keep it simple and answer with nothing but the number.

// known answers, use as guide
compound=NC(=O)NCC#Cc1ccc2c(c1)[C@]1(C(=O)N2)[C@H](c2ccccc2OCCO)N2[C@H](c3ccccc3)[C@H](c3ccccc3)OC(=O)[C@H]2[C@@H]1C(=O)N1CCCCCCC1 observed_result=4.09
compound=CO[C@H]1O[C@H](CO)[C@@H](OC(=O)Nc2cccc(F)c2)[C@H](OC(=O)Nc2ccccc2-c2ccccc2)[C@@H]1OC(=O)Nc1ccccc1-c1ccccc1 observed_result=3.34
compound=O=C1[C@H]2C=C(Br)[C@H](C[C@@H]2OCCOCCO)[C@@]12CO2 observed_result=0.0385
compound="O=C1OCCC=C[C@H]2OC34C=CCN(CCN5CCOCC5)C(=O)[C@H]3N(CCO)C(=O)[C@@H]4C12 (stereo not given in full)" observed_result=-0.114

Query: Please report composite z-score for the following compound: O=C1C2C=CC(C(O)c3ccc(B(O)O)cc3)N(Nc3ccc([N+](=O)[O-])cc3)C2C(=O)N1c1ccccc1 (stereo not given)
Result: 2.54

Source of measurements: PubChem BioAssay
